FYI, the data here is from PubChem BioAssay AID1963845.

Tested on: 429239-143-T-J1-PDC complex spheroid viability;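 note: luminescence signal used as surrogate measure of viable cells; spheroids exposed to compounds for seven days before readout; 100% = DMSO vehicle control viability as luminescence relative to vehicle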
Experiment: Anticancer human tumor 429239-143-T-J1-PDC patient-derived small cell lung carcinoma cell line growth inhibition [POLQ]
Details: second compound 3.16 µM; first compound 10 µM; stronger effect = lower value
Attribute measured: viability, T/C (%)
I only need the number, in %, no unit after it.

Please review the following examples before continuing.
CC1COCCN1c1cc(C2(S(C)(=N)=O)CC2)nc(-c2ccnc3[nH]ccc23)n1 (stereo not given) + Nc1ccc(C#CCN(C(=O)Cc2ncc(C(F)(F)F)cc2C(F)(F)F)c2ccc(F)cc2)nn1 ... 46
CCc1cc2c(N3CCc4c(cc(Cn5ccnc5)cc4-c4cn(C)nc4C(F)(F)F)C3=O)ccnc2c(OC)n1 + Nc1ccc(C#CCN(C(=O)Cc2ncc(C(F)(F)F)cc2C(F)(F)F)c2ccc(F)cc2)nn1 ... 54
Nc1ccn(C2OC(CO)C(O)C2(F)F)c(=O)n1 (stereo not given) + Cc1cccc(N(C)C(=O)C2C(O)CCN2c2nc(C)cc(C(F)(F)F)c2C#N)c1 ... 18.3
C=CC(=O)N1CCN(c2nc(=O)n(-c3c(C)ccnc3C(C)C)c3nc(-c4c(O)cccc4F)c(F)cc23)C(C)C1 (stereo not given) + Cc1cccc(N(C)C(=O)C2C(O)CCN2c2nc(C)cc(C(F)(F)F)c2C#N)c1 ... 122

Let us move to another entry and its viability, T/C.
The compound identified as COc1ccc([C@@H](O)c2cc(-c3ncnc4cc(N5CCOCC5)ccc34)c(F)cc2Cl)nn1 + Cc1cccc(N(C)C(=O)C2C(O)CCN2c2nc(C)cc(C(F)(F)F)c2C#N)c1 registered its viability, T/C at 8.69
